The measured values listed here are drawn from PubChem BioAssay AID330.

Tested on: P388 leukemia ip, CD2F1 mice, survival T/C
Experiment: NCI In Vivo Anticancer Drug Screen. Data for tumor model P388 Leukemia (intraperitoneal) in CD2F1 (CDF1) mice
Settings: endpoint: median survival time; dose: 240.0 mg/kg/injection; schedule: Q01DX005 (ip); vehicle: saline with Tween-80; higher = longer survival
Toxic doses and inconclusive results are not listed.
OUTCOME_MEASURE: T/C

Past entries and their recorded results:
[in] Give its T/C value. Item: COC(=O)c1nnn(-c2cccc(Cl)c2)c1C(=O)c1ccc(Cl)c(Cl)c1
[out] 88 % of control

[in] Reported T/C for COc1ccc(C(=O)c2ccccc2)c(OC(=O)Nc2c(Cl)cccc2Cl)c1 : what is it?
[out] 88 % of control

[in] Quick one: T/C for O=C1C=CSc2ccccc2N1 ?
[out] 101 % of control

--- query ---
[in] Any idea what its T/C is? The compound is NNC(=O)c1nnc(N)o1
[out] 95 % of control

* * *

Test system: P388 leukemia ip, CD2F1 mice, survival T/C
Assay: NCI In Vivo Anticancer Drug Screen. Data for tumor model P388 Leukemia (intraperitoneal) in CD2F1 (CDF1) mice
Settings: endpoint: median survival time; dose: 200.0 mg/kg/injection; schedule: Q01DX009 (ip); vehicle: Klucel (hydroxypropylcellulose) (HPC); higher = longer survival
Toxic doses and inconclusive results are not listed.
OUTCOME_MEASURE: T/C

Use the examples below as a reference point.
[in] Returns the measured T/C for the input compound. Input: CN=C1CN=C(OP(=O)(N2CCOCC2)N2CCOCC2)c2cc(Cl)ccc2N1
[out] 100 % of control

[in] Query: T/C; subject: CC(=O)Oc1cc2c(=O)oc3c(OC(C)=O)c(OC(C)=O)c(OC(C)=O)c4c(=O)oc(c1OC(C)=O)c2c34
[out] 86 % of control

[in] What T/C value was documented for this compound, c1ccc(-c2csc(-c3nc(-c4ccccc4)cs3)n2)cc1 ?
[out] 110 % of control

[in] Returns the measured T/C for the input compound. Input: Clc1ccc(OCSCOc2ccc(Cl)cc2Cl)c(Cl)c1
[out] 101 % of control

[in] What value of measured T/C is listed for C[n+]1cc2ccccc2cc1CC(=S)[S-] ?
[out] 91 % of control

Further cases:
[in] Using the record for Cc1cc(Br)ccc1N=c1scc(-c2ccc(Cl)cc2)n1C , report its T/C.
[out] 91 % of control

* * *

System: P388 leukemia ip, CD2F1 mice, survival T/C
Assay: NCI In Vivo Anticancer Drug Screen. Data for tumor model P388 Leukemia (intraperitoneal) in CD2F1 (CDF1) mice
Details: endpoint: median survival time; dose: 100.0 mg/kg/injection; schedule: Q04DX002 (ip); vehicle: Klucel (hydroxypropylcellulose) (HPC); higher = longer survival
Toxic doses and inconclusive results are not listed.
OUTCOME_MEASURE: T/C

Answered examples (2):
[in] Give the measured T/C of CCN(CC)Cc1c(C)[nH]c2ccc3c(c2c1=O)Oc1ccccc1O3 .
[out] 100 % of control

[in] Report T/C for CCCCCCCCCCCCCCCCCC(=O)NC[n+]1ccccc1 please.
[out] 87 % of control

***
[in] Tell me the measured T/C of O=C1c2ccccc2CC12OC2c1ccncc1 (stereo not drawn) , please.
[out] 104 % of control
